# Tested on: Streptococcus pneumoniae ATCC 49619
# Assay Comment: Broth microdilution MIC, S. pneumoniae ATCC 49619
# Format: cell-based
# Setup Conditions: ATCC49619, broth microdilution, 37° C., 20 hours, read-out: MIC S. pneumoniae ATCC 49619
Measure: MIC (µg/mL)

> print(dat)
                                   compound  measure  scale.unit  reported.measurement
1  O=C(Cn1ncc2nc(NCc3ccc(Cl)c(Cl)c3)[nH]c(=O)c21)N1CCOCC1 [Compound 158]      MIC       µg/mL                     4
2  O=c1[nH]c(NCc2ccc(Cl)c(Cl)c2)nc2cnn(CCOCCOP(=O)(O)O)c12 [Compound 296]      MIC       µg/mL                     8

[a] Cl.O=c1[nH]c(NCc2ccc(Cl)c(Cl)c2)nc2cnn(CCOc3ccc(CO)nc3)c12 [Compound 174]
[b] COCCn1nc(F)c2nc(NCc3ccc(F)c(F)c3)[nH]c(=O)c21 [Compound 308]
## Task // pick min by MIC: a , b Response format: the label of the selected entry.
## Result b
(b: 4 µg/mL, a: 8 µg/mL)

---

# System: Enterococcus faecalis ATCC 29212
# Assay Comment: Broth microdilution MIC, E. faecalis ATCC 29212
# Assay type: cell-based
# Setup Conditions: ATCC29212, broth microdilution, 37° C., 20 hours, read-out: MIC E. faecalis ATCC 29212
Measure: MIC (µg/mL)

Completed entries (count: 5):
> print(dat)
                                   compound  measure  scale.unit  reported.measurement
1  COCCn1cc2nc(NCc3ccc(Cl)c(Cl)c3)[nH]c(=O)c2n1      MIC       µg/mL                    32
2  O=c1[nH]c(NCc2ccc(Cl)c(Cl)c2)nc2cnn(C3CCNCC3)c12      MIC       µg/mL                    16
3  Cc1cc(CNc2nc3c(F)nn(CCOCCO)c3c(=O)[nH]2)ccc1F      MIC       µg/mL                    16
4  Cl.O=C(c1cccnc1)N1CCC(n2ncc3nc(NCc4ccc(Cl)c(Cl)c4)[nH]c(=O)c32)C1 (stereo not shown)      MIC       µg/mL                     8
5  CC(CCCn1ncc2nc(NCc3ccc(Cl)c(Cl)c3)[nH]c(=O)c21)C(=O)O (stereo not shown)      MIC       µg/mL                    32

[P] COCCN1CC(Cn2ncc3nc(NCc4ccc(Cl)c(Cl)c4)[nH]c(=O)c32)CC1=O (stereo not shown)
[Q] O=c1[nH]c(NCc2ccc(Cl)c(Cl)c2)nc2cnn(CCN3CCNCC3)c12
[R] CN(C)CC1CN(CCn2ncc3nc(NCc4ccc(Cl)c(Cl)c4)[nH]c(=O)c32)CCO1.Cl.Cl (stereo not shown)
[S] COc1cncc(C(=O)N2CCC(n3ncc4nc(NCc5ccc(Cl)c(Cl)c5)[nH]c(=O)c43)CC2)c1.Cl
## Task # rank_down: sort by MIC, max first Answer format: the labels, ordered as requested.
## Result Q, R, P, S
(Q: 64 µg/mL, R: 16 µg/mL, P: 8 µg/mL, S: 4 µg/mL)

[I] O=C1CCC(Cn2ncc3nc(NCc4ccc(Cl)c(Cl)c4)[nH]c(=O)c32)N1 (stereo not shown)
[II] CN1CC2CC1CN2CCn1ncc2nc(NCc3ccc(Cl)c(Cl)c3)[nH]c(=O)c21.Cl.Cl (stereo not shown)
[III] COCCCCCn1ncc2nc(NCc3ccc(Cl)c(Cl)c3)[nH]c(=O)c21
## Task Rank items: key MIC, increasing. Answer format: list of labels, ordered as asked.
## Result III, I, II

---

# System: Streptococcus pneumoniae ATCC 49619
# Assay Comment: Broth microdilution MIC, S. pneumoniae ATCC 49619
# Format: cell-based
# Setup Conditions: ATCC49619, broth microdilution, 37° C., 20 hours, read-out: MIC S. pneumoniae ATCC 49619
Measure: MIC (µg/mL)

[I] O=c1[nH]c(NCc2ccc(Cl)c(Cl)c2)nc2cnn(C(CO)CO)c12
[II] O=c1[nH]c(NCc2ccc(Cl)c(Cl)c2)nc2cnn(CC3COC3)c12
## Task Parameter metric = MIC. Return the lower-valued option from I and II . Mark your selection by writing its label.
## Result II

---

# System: Streptococcus pneumoniae ATCC 49619
# Assay Comment: Broth microdilution MIC, S. pneumoniae ATCC 49619
# Type: cell-based
# Setup Conditions: ATCC49619, broth microdilution, 37° C., 20 hours, read-out: MIC S. pneumoniae ATCC 49619
Measure: MIC (µg/mL)

> print(dat)
                                   compound                         assay.system  measure  reported.measurement
1  Cl.O=c1[nH]c(NCc2ccc(Cl)c(Cl)c2)nc2cnn(CCc3nnc(CO)o3)c12  Streptococcus pneumoniae ATCC 49619      MIC                    16
2  O=c1[nH]c(NCc2ccc(Cl)c(Cl)c2)nc2cn(C3COC3)nc12  Streptococcus pneumoniae ATCC 49619      MIC                    16
3  O=c1[nH]c(NCc2ccc(Cl)c(Cl)c2)nc2cn(CC3CCC3)nc12  Streptococcus pneumoniae ATCC 49619      MIC                    16

[P] COc1cncc(C(=O)N2CCC(n3ncc4nc(NCc5ccc(Cl)c(Cl)c5)[nH]c(=O)c43)CC2)c1.Cl
[Q] Cl.O=c1[nH]c(NCc2ccc(Cl)c(Cl)c2)nc2cn(Cn3cncn3)nc12
[R] CNCC(COC)OCCn1ncc2nc(NCc3ccc(Cl)c(Cl)c3)[nH]c(=O)c21.Cl (centres unmarked)
## Task Rank the items in ascending order with respect to MIC. Field: ranking. Enter the labels in the order requested.
## Result P, R, Q
(P: 4 µg/mL, R: 8 µg/mL, Q: 16 µg/mL)

---

# Tested on: Enterococcus faecium ATCC 700221 (VRE)
# Assay Comment: Broth microdilution MIC, E. faecium ATCC 700221 (VRE)
# Type: cell-based
# Setup Conditions: Enterococcus faecium; broth microdilution, 37° C., 20 hours; read-out: MIC E. faecium ATCC 700221 (VRE)
Measure: MIC (µg/mL)

> print(dat)
                                   molecule  reported.measurement
1  Cl.O=c1[nH]c(NCc2ccc(Cl)c(Cl)c2)nc2cnn(C3CCN(C4CCOCC4)CC3)c12                     2
2  CN1CCOC(Cn2ncc3nc(NCc4ccc(Cl)c(Cl)c4)[nH]c(=O)c32)C1.Cl (stereo not drawn)                     2
3  [2H]C([2H])(O)COCCn1ncc2nc(NCc3ccc(Cl)c(Cl)c3)[nH]c(=O)c21                     2
4  [2H]C([2H])(Nc1nc2cnn(CCOCCO)c2c(=O)[nH]1)c1ccc(Cl)c(Cl)c1                     4

[1] Cl.O=c1[nH]c(NCc2ccc(Cl)c(Cl)c2)nc2cnn(CCc3cnccn3)c12
[2] O=C(O)CCC(=O)N1CCC(n2ncc3nc(NCc4ccc(Cl)c(Cl)c4)[nH]c(=O)c32)CC1
[3] O=c1[nH]c(NCc2ccc(Cl)c(Cl)c2)nc2cnn(CCOCCCO)c12
[4] CC(=O)OCCCCn1ncc2nc(NCc3ccc(Cl)c(Cl)c3)[nH]c(=O)c21
## Task Please list these in order of increasing MIC. Thank you! List the labels, following the order given in the request.
## Result 4, 1, 3, 2
(4: 1 µg/mL, 1: 2 µg/mL, 3: 4 µg/mL, 2: 32 µg/mL)

---

# Tested on: Streptococcus pneumoniae ATCC 49619
# Assay Comment: Broth microdilution MIC, S. pneumoniae ATCC 49619
# Format: cell-based
# Setup Conditions: ATCC49619, broth microdilution, 37° C., 20 hours, read-out: MIC S. pneumoniae ATCC 49619
Measure: MIC (µg/mL)

Examples with answers:
> print(dat)
                                   compound  measure  scale.unit  reported.measurement
1  O=C(O)CCC(=O)N1CCC(n2ncc3nc(NCc4ccc(Cl)c(Cl)c4)[nH]c(=O)c32)CC1      MIC       µg/mL                    32
2  O=c1[nH]c(NCc2ccc(Cl)c(Cl)c2)nc2cnn(CC3CCOC3)c12 (centres unmarked)      MIC       µg/mL                     4
3  COCCN1CC(Cn2ncc3nc(NCc4ccc(Cl)c(Cl)c4)[nH]c(=O)c32)CC1=O (centres unmarked)      MIC       µg/mL                     4

[I] O=c1[nH]c(NCc2ccc(Cl)c(Cl)c2)nc2cnn(CCOC/C=N/O)c12
[II] Cc1ccc(CNc2nc3c(F)nn(CCOCCO)c3c(=O)[nH]2)cc1F
## Task # compare MIC for I vs II ; return the one with the smaller value Please identify the chosen entry by its label.
## Result I
(I: 4 µg/mL, II: 8 µg/mL)
